As shown below, each of these compounds has a reported IC50 value.
system: UniProt:P56817
Sequence (P56817 46-501, species assumed): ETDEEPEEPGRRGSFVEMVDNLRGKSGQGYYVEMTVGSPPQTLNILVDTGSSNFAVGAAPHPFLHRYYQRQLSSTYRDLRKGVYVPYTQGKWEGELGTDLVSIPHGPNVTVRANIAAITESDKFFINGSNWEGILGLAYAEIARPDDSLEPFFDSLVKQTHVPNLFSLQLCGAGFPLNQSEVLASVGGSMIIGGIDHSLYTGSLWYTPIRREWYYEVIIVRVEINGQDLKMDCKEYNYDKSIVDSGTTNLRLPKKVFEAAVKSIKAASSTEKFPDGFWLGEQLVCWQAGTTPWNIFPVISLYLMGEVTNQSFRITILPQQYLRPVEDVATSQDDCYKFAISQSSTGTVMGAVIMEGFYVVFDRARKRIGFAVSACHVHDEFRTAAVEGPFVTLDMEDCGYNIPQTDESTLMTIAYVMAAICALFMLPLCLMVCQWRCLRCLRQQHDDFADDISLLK
procedure-details: In Vitro BACE Cell-based Assay (HEK cell assay): Aβ40 in conditioned medium of cells stably expressing Amyloid Precursor Protein, sandwich ELISA
setup-conditions: read-out: HEK cell assay

Notebook: CC(C)(C)COc1ccc2c(n1)[C@]1(COC(N)=N1)c1cc(Br)ccc1O2 , IC50 read as 1000 to 5000 nM

What the record says about Cc1nc(-c2ccc3c(c2)[C@]2(COC(N)=N2)c2cc(-c4cccnc4)ccc2O3)cs1 : IC50 is < 100 nM

Measured IC50 of CC(C)(C)COc1ccc2c(c1)[C@@]1(CSC(N)=N1)c1cc(-c3cncnc3)ccc1O2 : 1000 to 5000 nM

# IC50 of Cc1cscc1-c1ccc2c(c1)[C@@]1(COC(N)=N1)c1cc(OCC(C)(C)C)ccc1O2 = 1000 to 5000 nM
